- Protocol: Protein binding in mouse plasma assessed as unbound fraction at 10 uM after 6 hrs by LC-MS/MS analysis
- Type: ADME, cell-free
Endpoint Name: fraction unbound at 6 h, 10 µM

Quick note, fraction unbound at 6 h, 10 µM for CCOC(=O)c1ccc(-n2c(/C=C3\OC(=O)c4c3cc(C)[nH]c4=O)ccc2CO)cc1 landed at 0.0899

----------
- Protocol: Stability in rat liver microsomes assessed as CYP450-mediated drug degradation by measuring proportion of compound metabolised at 1 uM up to 60 mins in presence of NADPH by LC-MS/MS analysis
- Format: ADME
- Experimental Parameters: read-out: Drug degradation
Endpoint Name: metabolised at 1 h, 1 µM (%)
One number for each entry, in %.

Quick note, metabolised at 1 h, 1 µM for CCOC(=O)c1ccc(-n2c(/C=C3\OC(=O)c4c3cc(C)[nH]c4=O)ccc2CO)cc1 landed at 95.2

----------
- Target System: Maltase-glucoamylase (Homo sapiens, UniProt O43451)
- Sequence (O43451 whole entry): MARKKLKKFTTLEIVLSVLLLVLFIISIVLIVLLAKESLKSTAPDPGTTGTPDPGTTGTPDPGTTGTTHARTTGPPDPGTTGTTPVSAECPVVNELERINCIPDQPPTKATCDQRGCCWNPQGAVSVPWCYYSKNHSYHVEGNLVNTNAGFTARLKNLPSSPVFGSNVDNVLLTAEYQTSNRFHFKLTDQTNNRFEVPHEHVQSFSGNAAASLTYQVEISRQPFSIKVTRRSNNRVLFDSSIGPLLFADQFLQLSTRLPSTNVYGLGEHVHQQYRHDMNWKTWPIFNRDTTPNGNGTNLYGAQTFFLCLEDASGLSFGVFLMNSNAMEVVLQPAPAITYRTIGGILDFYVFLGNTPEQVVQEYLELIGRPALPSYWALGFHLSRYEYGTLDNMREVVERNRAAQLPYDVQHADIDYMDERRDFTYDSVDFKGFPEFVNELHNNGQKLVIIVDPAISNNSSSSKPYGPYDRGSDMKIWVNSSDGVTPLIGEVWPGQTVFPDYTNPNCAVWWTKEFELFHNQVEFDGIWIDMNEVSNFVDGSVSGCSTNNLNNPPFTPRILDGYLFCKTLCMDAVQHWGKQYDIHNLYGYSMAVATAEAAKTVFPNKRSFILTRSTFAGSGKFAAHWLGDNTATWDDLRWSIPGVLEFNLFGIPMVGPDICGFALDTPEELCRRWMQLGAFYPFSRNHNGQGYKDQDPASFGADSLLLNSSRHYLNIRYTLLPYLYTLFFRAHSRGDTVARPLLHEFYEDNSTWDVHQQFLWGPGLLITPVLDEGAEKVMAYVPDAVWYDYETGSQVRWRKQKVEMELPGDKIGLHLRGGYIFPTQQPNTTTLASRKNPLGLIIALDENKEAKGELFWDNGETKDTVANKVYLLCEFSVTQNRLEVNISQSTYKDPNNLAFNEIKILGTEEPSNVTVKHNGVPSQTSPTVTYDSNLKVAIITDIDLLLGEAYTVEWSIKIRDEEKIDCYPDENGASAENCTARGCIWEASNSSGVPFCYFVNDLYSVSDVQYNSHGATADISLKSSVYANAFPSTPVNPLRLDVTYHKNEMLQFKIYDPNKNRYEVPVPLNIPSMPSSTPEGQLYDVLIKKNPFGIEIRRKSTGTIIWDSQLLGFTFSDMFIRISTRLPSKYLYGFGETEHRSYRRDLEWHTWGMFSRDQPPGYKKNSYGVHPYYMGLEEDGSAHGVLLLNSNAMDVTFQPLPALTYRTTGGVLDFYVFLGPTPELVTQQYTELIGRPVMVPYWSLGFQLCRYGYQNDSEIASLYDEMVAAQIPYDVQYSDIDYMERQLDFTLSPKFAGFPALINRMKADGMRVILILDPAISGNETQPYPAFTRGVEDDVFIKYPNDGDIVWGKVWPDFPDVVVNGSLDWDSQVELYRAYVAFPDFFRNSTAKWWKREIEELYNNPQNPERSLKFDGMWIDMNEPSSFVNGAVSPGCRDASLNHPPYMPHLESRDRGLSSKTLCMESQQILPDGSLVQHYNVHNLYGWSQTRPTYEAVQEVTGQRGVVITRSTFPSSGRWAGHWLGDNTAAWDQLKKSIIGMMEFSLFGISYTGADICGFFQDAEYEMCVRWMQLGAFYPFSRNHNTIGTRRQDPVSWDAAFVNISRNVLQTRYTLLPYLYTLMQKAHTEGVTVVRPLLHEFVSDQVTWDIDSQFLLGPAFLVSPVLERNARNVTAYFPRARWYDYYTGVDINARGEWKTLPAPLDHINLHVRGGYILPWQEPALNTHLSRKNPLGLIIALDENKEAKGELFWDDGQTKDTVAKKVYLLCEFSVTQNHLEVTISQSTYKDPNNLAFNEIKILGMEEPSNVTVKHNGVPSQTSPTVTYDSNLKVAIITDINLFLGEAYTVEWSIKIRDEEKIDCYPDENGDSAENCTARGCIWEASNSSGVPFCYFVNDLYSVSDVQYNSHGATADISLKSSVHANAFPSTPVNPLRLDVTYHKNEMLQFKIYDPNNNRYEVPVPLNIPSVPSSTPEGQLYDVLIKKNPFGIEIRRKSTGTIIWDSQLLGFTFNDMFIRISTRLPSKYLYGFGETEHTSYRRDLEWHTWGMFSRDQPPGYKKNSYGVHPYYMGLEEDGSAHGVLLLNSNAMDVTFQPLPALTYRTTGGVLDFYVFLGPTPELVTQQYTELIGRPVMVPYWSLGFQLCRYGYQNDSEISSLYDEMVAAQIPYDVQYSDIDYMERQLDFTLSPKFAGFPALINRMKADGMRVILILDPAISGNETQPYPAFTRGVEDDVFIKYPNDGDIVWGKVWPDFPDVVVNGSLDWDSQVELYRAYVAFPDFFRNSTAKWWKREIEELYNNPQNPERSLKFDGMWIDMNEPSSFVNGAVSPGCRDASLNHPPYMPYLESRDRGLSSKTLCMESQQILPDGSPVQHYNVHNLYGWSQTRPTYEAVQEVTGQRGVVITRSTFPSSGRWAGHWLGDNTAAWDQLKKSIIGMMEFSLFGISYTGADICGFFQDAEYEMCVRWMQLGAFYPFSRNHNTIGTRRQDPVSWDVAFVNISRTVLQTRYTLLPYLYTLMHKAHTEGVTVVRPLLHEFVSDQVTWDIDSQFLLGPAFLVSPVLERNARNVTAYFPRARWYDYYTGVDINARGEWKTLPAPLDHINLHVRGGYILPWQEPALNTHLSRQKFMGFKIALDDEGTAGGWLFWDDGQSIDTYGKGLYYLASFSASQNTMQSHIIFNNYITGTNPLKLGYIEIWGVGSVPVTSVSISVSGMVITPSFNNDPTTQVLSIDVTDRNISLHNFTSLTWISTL
Endpoint Name: IC50 (µM)
One number for each entry, in µM.

[[record]]
molecule = "COc1ccc([C@@H]2N[C@@H](CO)[C@H](O)[C@H]2O)cc1O [L-RADICAMINE A]"
uom = "µM"
quantitative_readout = 6.7


Quick note, IC50 for OC[C@@H]1N[C@@H](c2ccc(O)cc2)[C@H](O)[C@H]1O landed at 9.3
